Could you please report measured %Inh for the items listed next?
- Test system: JNK3;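 note: KINOMEscan kinase panel screen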
- Construct: gene MAPK10
- Test Settings: concentration: 1 μM, replicates: in singlicate; n = 1
Record the value in %, omitting the unit from your answer.

Reported %Inh of CC(C)(C)c1ccc(-n2cnc3c(N)ncnc32)cc1 : 1

Sure, the documented %Inh for Cc1ccc(NC(=O)c2cccc(C#N)c2)cc1-c1ccc(C(=O)Nc2ccncc2)cc1 is 17

For this molecule ( COc1ccc(Nc2nccc(N3CCC(NC(=O)c4cccc(NC(C)=O)c4)C3)n2)cc1 (stereo not drawn) ), measured %Inh is 26

// sample CC(C)(C)OC(=O)NC1CCCN(c2cc(-c3ccc4c(N)n[nH]c4c3)nc(N)n2)C1 (stereo not drawn) , its %Inh was 7

The measured %Inh associated with CCn1c(-c2ccncc2)nc2cnccc21 reads 17

// COc1ccc(NC(=O)c2ccc(-c3cc(-c4nnc(C)o4)ccc3C)cc2)cc1 : %Inh value = 12

Lab note: measured %Inh of Cc1cc(N2CCC(NS(=O)(=O)c3ccc(F)cc3)CC2)nc(Nc2cccc(C#N)c2)n1.O=C(O)C(F)(F)F was 0

So, Nc1nc(-c2ccccn2)c(-c2ccnc3ccccc23)s1 ? Its %Inh was 1

The value of %Inh measured for the molecule Cl.Cl.c1ccc(-c2cc3ccncc3cc2OC2CCNCC2)cc1 turned out to be 0
